Assay: folding enthalpy; higher = less favourable; fluorescence melt of hairpins on a sequencing array, two-state fit
Settings: sodium 0.088 M
valueType: folding enthalpy (kcal/mol)
Answer with a number only, understood to be in kcal/mol.

[[record]]
residues = "GACCCGGGAAACCGGATC ((.((((....)))).))"
valuetype = "folding enthalpy"
unitssymbol = "kcal/mol"
quantitativereadout = -16.3

[[record]]
residues = "GATCTTCGGCAAGATC ((((((....))))))"
valuetype = "folding enthalpy"
unitssymbol = "kcal/mol"
quantitativereadout = -28.3

[[record]]
residues = "GCCTTGCGAAAGCAGGC (((.(((....))))))"
valuetype = "folding enthalpy"
unitssymbol = "kcal/mol"
quantitativereadout = -24

[[record]]
residues = "GTTATGAAAATAAC (((((....)))))"
valuetype = "folding enthalpy"
unitssymbol = "kcal/mol"
quantitativereadout = -16.9

[[record]]
residues = "GGACGAGGAAACTCATCC (((.(((....))).)))"
valuetype = "folding enthalpy"
unitssymbol = "kcal/mol"
quantitativereadout = -27.4


Moving on to the next sequence.
In: Looking for the measured folding enthalpy of GTTGGCGGAAACGCCGAC ((.((((....)))).)) , can you help?
Out: -25

* * *

Assay: melting temperature; fluorescence melt of hairpins on a sequencing array, two-state fit, raised by 9.35 °C to match UV melts
Conditions: sodium 0.088 M
Checkbox rule: Tm lower than 50 °C = MET; Tm not lower than 50 °C = NOT MET.

[[record]]
residues = "GTGGTTACGAAAGTACAC (((..(((....))))))"
labelvalue = "MET"

[[record]]
residues = "GCGGGAGGCCGC ((((....))))"
labelvalue = "NOT MET"

[[record]]
residues = "GCAAAGCGAAAGCTTCGC ((.((((....)))).))"
labelvalue = "NOT MET"

[[record]]
residues = "GCGATTACGAAAGTACGC (((..(((....))))))"
labelvalue = "MET"


# next sequence below
In: Is 50 °C strictly greater than the sequence's reported Tm? sequence: GCGGAGCGAAAGCTTTGC ((..(((....)))..))
Out: MET

* * *

Listing: Tm of selected sequences
Assay: melting temperature; fluorescence melt of hairpins on a sequencing array, two-state fit, raised by 9.35 °C to match UV melts
Details: sodium 0.088 M
In your response, the unit should come after the numeric value.

Here is how some sequences turned out for Tm.
[[record]]
residues = "GCACATGGAAACATGTAC (.(((((....))))).)"
valuetype = "Tm"
result = "37.4 °C"

[[record]]
residues = "GTAAGAGGAAACTCTTAC (((((((....)))))))"
valuetype = "Tm"
result = "51 °C"

[[record]]
residues = "GAAACAGGAAACTGCTTC (((.(((....))).)))"
valuetype = "Tm"
result = "31.6 °C"


In: Looking for the measured Tm of GTCCTTCGAAAGAACGAC (((.(((....))).))) , can you help?
Out: 33.5 °C

In: Looking for the measured Tm of GCCTGGCGAAAGCCGCGC ((..(((....)))..)) , can you help?
Out: 52.3 °C

In: Looking for the measured Tm of GATCACGATGTGATC ((((((...)))))) , can you help?
Out: 58.5 °C

In: Looking for the measured Tm of GCTGAACGAAAGTTAAGC (((.(((....))).))) , can you help?
Out: 50.6 °C

In: Looking for the measured Tm of GCGACCTCTCGC ((((....)))) , can you help?
Out: 46.9 °C
